The values you see were collected from patent US9018219B2.

- measured-on: CYP2D6 (Homo sapiens)
- Sequence (P10635 whole entry): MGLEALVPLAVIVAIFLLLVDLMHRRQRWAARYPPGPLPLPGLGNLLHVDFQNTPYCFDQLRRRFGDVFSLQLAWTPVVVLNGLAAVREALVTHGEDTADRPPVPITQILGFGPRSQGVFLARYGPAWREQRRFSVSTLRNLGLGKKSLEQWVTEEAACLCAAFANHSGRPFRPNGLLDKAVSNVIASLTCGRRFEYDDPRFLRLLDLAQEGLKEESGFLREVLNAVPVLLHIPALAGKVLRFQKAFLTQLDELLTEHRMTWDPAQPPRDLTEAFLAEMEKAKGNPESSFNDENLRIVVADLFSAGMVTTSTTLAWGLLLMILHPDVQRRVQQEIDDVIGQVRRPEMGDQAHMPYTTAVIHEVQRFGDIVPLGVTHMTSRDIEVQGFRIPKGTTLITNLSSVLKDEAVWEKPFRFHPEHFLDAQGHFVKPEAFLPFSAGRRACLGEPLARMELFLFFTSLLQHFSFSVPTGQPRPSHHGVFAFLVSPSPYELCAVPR
pIC50: −log10 of the molar value.
endpoint: pIC50

1. C[C@@]1(c2cc(-c3cccnc3F)ccc2F)Cc2nccn2C(N)=N1; < 4.70

====

- measured-on: CYP1A2 (Homo sapiens)
- Sequence (P05177 whole entry): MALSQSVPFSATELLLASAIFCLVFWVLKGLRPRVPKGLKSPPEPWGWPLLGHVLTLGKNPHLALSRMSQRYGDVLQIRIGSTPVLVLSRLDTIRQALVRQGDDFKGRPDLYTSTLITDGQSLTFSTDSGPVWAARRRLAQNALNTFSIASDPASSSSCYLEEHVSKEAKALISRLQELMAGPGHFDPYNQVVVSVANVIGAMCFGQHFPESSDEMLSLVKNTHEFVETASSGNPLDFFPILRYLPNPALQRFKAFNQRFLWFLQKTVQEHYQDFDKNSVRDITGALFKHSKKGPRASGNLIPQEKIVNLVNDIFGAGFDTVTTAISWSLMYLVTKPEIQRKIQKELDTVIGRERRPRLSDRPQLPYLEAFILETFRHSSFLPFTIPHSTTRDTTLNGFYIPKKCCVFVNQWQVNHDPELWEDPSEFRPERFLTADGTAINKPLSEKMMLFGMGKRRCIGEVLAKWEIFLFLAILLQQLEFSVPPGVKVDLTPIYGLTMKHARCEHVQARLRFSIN
endpoint: IC50

1. C[C@@]1(c2cc(-c3cccnc3F)ccc2F)Cc2nccn2C(N)=N1; > 20 µM

====

- method-summary: Brain distribution studies
- Assay type: in vivo
- condition-info: brain/plasma; rat, intravenous 0.5 mg/mL/kg, 30 minutes later; read-out: brain Kp value (area ratio brain/plasma)
endpoint: Kp at 0.5 h

1. CC1(c2cc(-c3cccnc3F)ccc2F)Cc2cncn2C(N)=N1 (stereo not shown) [Compound I-7]; 1.7
